Measured kill in % accompanies every entry in the list below.
test system: adult houseflies (Musca domestica); assay: Musca domestica test (MUSCDO); type: in vivo; details: application rate 100 ppm; after 2 days
Phrase the answer as number then unit, nothing more needed.

These solved cases illustrate the format of a correct answer.
Memo: Cn1nc(C(F)(F)C(F)(F)F)c(C(F)(F)F)c1-n1cc(-c2ccc(F)c(CNC(=O)C(F)(F)F)c2)cn1 , reported kill in %: 80%

Memo: CC(=O)NCc1cc(-c2cn(-c3c(C(F)(F)F)c(C(F)(F)C(F)(F)F)nn3C)nn2)ccc1F , reported kill in %: 100%

Memo: CCC(=O)NCc1cc(-c2cn(-c3c(C(F)(F)F)c(C(F)(F)C(F)(F)F)nn3C)nn2)ccc1F , reported kill in %: 100%

Memo: CC(=O)NCc1cccc(-c2cnn(-c3c(C(F)(F)F)c(C(F)(F)C(F)(F)F)nn3C)c2)c1 , reported kill in %: 100%

Memo: CCC(=O)NCc1cccc(-c2cn(-c3c(C(F)(F)F)c(C(F)(F)C(F)(F)F)nn3C)nn2)c1 , reported kill in %: 100%

Please look at the following compound next.
Memo: CC(=O)NCc1cc(-c2cnn(-c3c(C(F)(F)F)c(C(F)(F)C(F)(F)F)nn3C)c2)ccc1F , reported kill in %: 100%

----------
Measured chromatographic logP accompanies every entry in the list below.
Experiment: log P determination by HPLC on reversed-phase column (C18), EEC Directive 79/831 Annex V.A8
Type: physicochemical
Details: method a): Agilent 1100 LC, Zorbax Eclipse Plus C18, acetonitrile/water with formic acid, gradient 10-95% in 4.25 min, 55° C.
Description: Agilent 1100 LC system; 50*4.6 Zorbax Eclipse Plus C18 1.8 micron; mobile phase A: acetonitrile (0.1% formic acid); mobile phase B: water (0.09% formic acid); linear gradient from 10% acetonitrile to 95% acetonitrile in 4.25 min, then 95% acetonitrile for a further 1.25 min; oven temperature 55° C.; flow rate: 2.0 ml/min. Mass detection is carried out via an Agilend MSD system. […]
Answer as a number with no unit attached.

These solved cases illustrate the format of a correct answer.
Memo: CCC(=O)NCc1cccc(-c2cnn(-c3c(C(F)(F)F)c(C(F)(F)C(F)(F)F)nn3C)c2)c1 , reported chromatographic logP: 3.59

Memo: Cn1nc(C(F)(F)C(F)(F)F)c(C(F)(F)F)c1-n1cc(Br)cn1 , reported chromatographic logP: 4.17

Memo: Cn1nc(C(F)(F)C(F)(F)F)c(C(F)(F)F)c1-n1cc(-c2cccc(CN)c2)cn1 , reported chromatographic logP: 1.93

Next:
Memo: Cn1nc(C(F)(F)C(F)(F)F)c(C(F)(F)F)c1-n1cnc(-c2cccc(CNC(=O)OC(C)(C)C)c2)c1 , reported chromatographic logP: 4.21

----------
Measured chromatographic logP accompanies every entry in the list below.
assay: log P determination by HPLC on reversed-phase column (C18), EEC Directive 79/831 Annex V.A8; format: physicochemical; details: method a): Agilent 1100 LC, Zorbax Eclipse Plus C18, acetonitrile/water with formic acid, gradient 10-95% in 4.25 min, 55° C.
Where a name gives a salt, the structure may show the parent alone.
Answer as a number with no unit attached.

These solved cases illustrate the format of a correct answer.
Memo: Cn1nc(C(F)(F)C(F)(F)F)c(C(F)(F)F)c1-n1cc(-c2cccc(CNC(=O)OC(C)(C)C)c2)cn1 [Ic-18] , reported chromatographic logP: 4.74

Memo: CCC(=O)NCc1cccc(-c2cn(-c3c(C(F)(F)F)c(C(F)(F)C(F)(F)F)nn3C)cn2)c1 [Ib-5] , reported chromatographic logP: 3.14

Next:
Memo: Cn1nc(C(F)(F)C(F)(F)F)c(C(F)(F)F)c1-n1cnc(-c2cccc(CN)c2)c1 [hydrochloride] , reported chromatographic logP: 1.83

Memo: Cn1nc(C(F)(F)C(F)(F)F)c(C(F)(F)F)c1-n1cnc(I)c1 , reported chromatographic logP: 3.47

Memo: CCC(=O)NCc1cc(-c2cnn(-c3c(C(F)(F)F)c(C(F)(F)C(F)(F)F)nn3C)c2)ccc1F [Ib-8] , reported chromatographic logP: 3.27

Memo: Cn1nc(C(F)(F)C(F)(F)F)c(C(F)(F)F)c1-n1cc(-c2ccc(F)c(C#N)c2)cn1 , reported chromatographic logP: 4.37

The origin of these recorded values is patent US9675070B2.
